Tested on: Uterine Eosinophil Peroxidase
Assay: Uterine Eosinophil Peroxidase (EPO) Assay
Assay type: in vivo, female Sprague Dawley rats
Details: 1.0 mg/kg PO, daily for 4 days; 5 to 6 rats; * p < .05
Experimental: Seventy-five day old female Sprague Dawley rats (weight range of 200 to 225 g) were obtained from Charles River Laboratories (Portage, Mich.). […] Dosing Regimen Tissue Collection. […] The animals were then sacrificed by asphyxiation with CO2, the uterus was removed through a midline incision, and a wet uterine weight was determined. Uterine Eosinophil Peroxidase (EPO) Assay. […] The maximal velocity of a 15 second interval was determined over the initial, linear portion of the reaction curve. […]
Structures can show the parent of a compound that is named as a salt.
recorded metric: Uterine Eosinophil (Vmax), Eosinophil peroxidase Vmax
Enter a number only.

A selection of reference data follows.
[[record]]
compound = "COc1ccc(-c2sc3cc(OC)ccc3c2-c2cccc(OCCN3CCCCC3)c2)cc1.Cl"
tested_on = "Uterine Eosinophil Peroxidase"
quantitative_readout = 22.2

[[record]]
compound = "COc1ccc(-c2sc3cc(OC)ccc3c2-c2cccc(OCCCN3CCCCC3)c2)cc1.Cl"
tested_on = "Uterine Eosinophil Peroxidase"
quantitative_readout = 32.4

[[record]]
compound = "COc1ccc(-c2sc3cc(OC)ccc3c2-c2cccc(OCCCCN3CCCCC3)c2)cc1.Cl"
tested_on = "Uterine Eosinophil Peroxidase"
quantitative_readout = 43.5

[[record]]
compound = "Oc1ccc(-c2sc3cc(O)ccc3c2-c2ccc(OCCN3CCCCC3)cc2)cc1 [Compound A, reference compound]"
tested_on = "Uterine Eosinophil Peroxidase"
quantitative_readout = 49.9


Continue with the next compound.
Task: Fill in: Uterine Eosinophil (Vmax), Eosinophil peroxidase Vmax on Uterine Eosinophil Peroxidase, entry Oc1ccc(-c2sc3cc(O)ccc3c2-c2cccc(OCCN3CCCCC3)c2)cc1 [Example 4, hydrochloride]
Output: 4.8

---

tested on: uterus of ovariectomized rats; test: Uterine weight in ovariectomized rats; format: in vivo, female Sprague Dawley rats; conditions: 1.0 mg/kg PO, daily for 4 days; 5 to 6 rats; * p < .05
Where a name gives a salt, the structure may show the parent alone.
Uterine Weight % Inc (increase versus the ovariectomized controls) values for the molecules below.
# number only, unit % dropped from output

A selection of reference data follows.
[[record]]
molecule = "COc1ccc(-c2sc3cc(OC)ccc3c2-c2cccc(OCCCCN3CCCCC3)c2)cc1.Cl [Example 3]"
quantitative_readout = 62.1

[[record]]
molecule = "Oc1ccc(-c2sc3cc(O)ccc3c2-c2cccc(OCCN3CCCCC3)c2)cc1 [Example 4, hydrochloride]"
quantitative_readout = 5.6

[[record]]
molecule = "Oc1ccc(-c2sc3cc(O)ccc3c2-c2ccc(OCCN3CCCCC3)cc2)cc1 [Compound A, reference compound]"
quantitative_readout = 64.8


Task: Determine from records and report Uterine Weight % Inc (increase versus the ovariectomized controls) for COc1ccc(-c2sc3cc(OC)ccc3c2-c2cccc(OCCCN3CCCCC3)c2)cc1.Cl [Example 2]
Output: 35.7

Task: Determine from records and report Uterine Weight % Inc (increase versus the ovariectomized controls) for COc1ccc(-c2sc3cc(OC)ccc3c2-c2cccc(OCCN3CCCCC3)c2)cc1.Cl [Example 1]
Output: 37.2

---

Serum Cholest. % Dec. (decrease versus ovariectomized controls) values for the molecules below.
system: Serum cholesterol; experiment: Serum cholesterol analysis in ovariectomized rats; assay type: in vivo, female Sprague Dawley rats; conditions: 0.1 mg/kg PO, daily for 4 days; 5 to 6 rats; * p < .05
Structures can show the parent of a compound that is named as a salt.
# number only, unit % dropped from output

A selection of reference data follows.
[[record]]
molecule = "C#C[C@]1(O)CC[C@H]2[C@@H]3CCc4cc(O)ccc4[C@H]3CC[C@@]21C [EE2, 17α-ethynyl estradiol, reference compound]"
quantitative_readout = 89.3

[[record]]
molecule = "Oc1ccc(-c2sc3cc(O)ccc3c2-c2ccc(OCCN3CCCCC3)cc2)cc1 [Compound A, reference compound]"
quantitative_readout = 45.4

[[record]]
molecule = "COc1ccc(-c2sc3cc(OC)ccc3c2-c2cccc(OCCN3CCCCC3)c2)cc1.Cl"
quantitative_readout = 25.8

[[record]]
molecule = "COc1ccc(-c2sc3cc(OC)ccc3c2-c2cccc(OCCCN3CCCCC3)c2)cc1.Cl"
quantitative_readout = 59.1


Task: Determine from records and report Serum Cholest. % Dec. (decrease versus ovariectomized controls) for Oc1ccc(-c2sc3cc(O)ccc3c2-c2cccc(OCCN3CCCCC3)c2)cc1 [Example 4, hydrochloride]
Output: 33.3

Task: Determine from records and report Serum Cholest. % Dec. (decrease versus ovariectomized controls) for `COc1ccc(-c2sc3cc(OC)ccc3c2-c2cccc(OCCCCN3CCCCC3)c2)cc1.Cl`
Output: 35.5
